# target system: Fibroblast growth factor 10 (Homo sapiens) (UniProt O15520)
# Sequence (O15520 whole entry, looked up): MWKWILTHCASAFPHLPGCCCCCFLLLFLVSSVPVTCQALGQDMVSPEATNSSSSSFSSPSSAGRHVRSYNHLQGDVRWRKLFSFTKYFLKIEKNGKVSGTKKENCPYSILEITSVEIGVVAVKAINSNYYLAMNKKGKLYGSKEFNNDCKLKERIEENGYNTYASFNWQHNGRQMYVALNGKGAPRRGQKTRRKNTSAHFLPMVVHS
# measurement description: FGF10 binders on small-molecule microarrays, primary screen, biochemical, small-molecule microarray, 635 nm fluorescence (AID 1102)
# cond: FGF10 binding, fluorescence 635 nm, higher = more signal
measurement name: composite z-score
Form field (numeric): enter value without unit.

| compound | measured number |
| --- | --- |
| COc1cccc(-c2cccc(=O)o2)c1 | 0.423 |
| CCCC[C@@H]1C[C@H]1[C@@H](NC(=O)c1cccs1)c1ccc(-c2ccccc2)cc1 | 0.655 |
| COC(=O)[C@@]1(CCS(=O)(=O)c2ccccc2)N=C(c2ccc(OCCCO)cc2)O[C@H]1c1ccccc1CN=[N+]=[N-] | 0.336 |
| CCCCCCc1nc(-c2cc(C)c(OC)c(C)c2)cc2c1[Si](C(C)C)(C(C)C)OC2 | -0.0932 |
| Cc1ccc(S[C@]2(C(=O)NCCCN(C)C)CC(=O)N(Cc3ccccc3C(F)(F)F)[C@@H]2c2ccc(CO)cc2)cc1 | -0.904 |

Query: Which composite z-score value is on record for CC#CC(=O)Oc1ccccc1C=CC(=O)OCC ?
Result: -0.176

Query: Now give it for O=C(c1ccccc1)N1C(=O)[C@]2(COC(c3ccc(OCCCO)cc3)=N2)Cc2ccccc21 too.
Result: 1.07

Query: # iterate: O=C1C2C=CC(C(O)CCc3ccccc3)N(Nc3ccccc3F)C2C(=O)N1c1ccccc1 (stereo not drawn)
Result: 1.25

Query: Here is the next compound: C=C[C@H](CO)NS(=O)(=O)c1ccc(Br)cc1
Result: 0.335

Query: Also CN(C)CCCCCCNC(=O)[C@H]1C[C@H]2C(=O)N3CCC[C@H]3C(=O)N2[C@H]1c1ccc(O)cc1 , if possible.
Result: 1.28

Query: Follow-up entry: [N-]=[N+]=NCc1ccccc1C[C@]1(C(=O)N2CCCCC2)N=C(c2ccc(OCCCO)cc2)O[C@H]1c1ccccc1N=[N+]=[N-]
Result: 0.55

Query: Note, next up: CCCC[C@@H]1C[C@H]1[C@@H](NC(=O)c1ccccc1)c1ccc(C(=O)OC)cc1
Result: -0.358

Query: What do you have for CCOC(=O)C1=C[C@@H](C(C)(C)C)N(S(=O)(=O)c2ccc(C)cc2)[C@H]1c1ccc(F)cc1 ?
Result: 0.81

Query: Now this one: O=C1C2C=CC(C(O)Cc3ccccc3)N(n3cnnc3)C2C(=O)N1Cc1ccccc1 (stereo not drawn)
Result: 0.33

====

# measurement description: A549 cell viability effects, profiling panel, calcein-AM fluorescence, 48 h, basal (AID 1162); further: test concentration not given here
# cond: higher = more signal
I would appreciate it if you labelled entries t when z-score is -0.2 or higher, otherwise f.

Consider the following illustrative entries.
| molecule | category |
| --- | --- |
| [N-]=[N+]=NCc1ccccc1[C@@H]1OC(c2ccc(OCCCO)cc2)=N[C@]1(Cc1ccccc1)C(N)=O | t |
| COc1ccc(C#Cc2ccc3c(c2)[C@]2(C(=O)N3)[C@H](C(=O)Nc3nc4ccccc4s3)[C@H]3C(=O)O[C@H](c4ccccc4)[C@H](c4ccccc4)N3[C@@H]2c2ccc(O)cc2)cc1 | t |
| COc1cc2c(cc1O)C(c1cccs1)N(C)CC2 (configuration not stated) | f |
| [N-]=[N+]=Nc1ccccc1[C@H]1OC(c2ccc(OCCCO)cc2)=N[C@@]1(CCS(=O)(=O)c1ccccc1)C(N)=O | t |
| CCCCCCc1nc(-c2cc(C)c(OC)c(C)c2)cc2c1[Si](C(C)C)(C(C)C)OC2 | t |
| C=CCNC(=O)[C@@H]1[C@H]2C(=O)O[C@H](c3ccccc3)[C@H](c3ccccc3)N2[C@H](c2ccc(O)cc2)[C@@]12C(=O)Nc1ccc(C#CCNC(N)=O)cc12 | t |

Turning to the following molecule.
Query: Could you tell me if the measured z-score of COc1ccc(-c2cc3c(c(-c4ccc(Oc5ccccc5)cc4)n2)[Si](C(C)C)(C(C)C)OC3)cn1 reaches -0.2 or more?
Result: f
